- test-target: PARP-1 F1+F2 (24-kDa DBD) (Homo sapiens, UniProt P09874 1-214)
- Sequence (P09874 1-214): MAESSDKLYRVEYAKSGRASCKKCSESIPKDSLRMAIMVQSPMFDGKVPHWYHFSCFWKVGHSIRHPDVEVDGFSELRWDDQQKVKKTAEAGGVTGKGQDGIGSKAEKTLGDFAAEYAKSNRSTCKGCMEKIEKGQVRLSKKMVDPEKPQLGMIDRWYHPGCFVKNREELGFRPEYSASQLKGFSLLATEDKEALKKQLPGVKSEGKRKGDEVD
- method-description: fluorescence anisotropy; 0; 50 mM Tris-HCl pH 7.0, 150 uM ZnSO4, 4 mM DTT, 25 C; NaCl 0-200 mM (T2, as in cof; 10 nM DNA) or 25 mM (T3 mutants; 25 nM DNA)
- setup-conditions: protein: recombinant; label: fluorescein-dT at T8 and T30; single-chain dumbbell with central nick, two tetraloops
outcome-measure: Kd (nM)
A number alone suffices; assume nM.

(Q) // query Kd value for entry CGGTCGATCGTAAGATCGACCGCGGTCGATCGTAAGATCGACCG (structured_DNA, 5'-phosphate) [44-nt nicked symmetric dumbbell, 5'-phosphate, 2x fluorescein-dT]
(A) 48.6
